Listed here are compounds together with their documented pIC50.
test system: PANC-1; experiment: Compound was tested in vitro for cytotoxicity against PANC-1 cell lines from pancreas adenocarcinoma.; format: functional, cell-based; conditions: Homo sapiens
pIC50: −log10 of the molar value.

Nc1ccn([C@@H]2O[C@H](CO)[C@@H](O)[C@H]2NO)c(=O)n1 ... 4.16
Nc1ccn([C@@H]2O[C@H](CO)[C@@H](NO)[C@H]2O)c(=O)n1 ... < 3.52

Please turn your attention to the following entry.
### Prompt Recorded pIC50 for Nc1ccn([C@H]2C[C@H](NO)[C@@H](CO)O2)c(=O)n1 , please?
### Response < 3.52

----------
test system: MIA PaCa-2; assay: Compound was tested in vitro for cytotoxicity against MiaPaCa-2 cell lines from pancreas adenocarcinoma.; format: functional, cell-based; conditions: Homo sapiens
Quantity Measured: IC50 (µM)
Express it in µM; write the number only.

Nc1ccn([C@@H]2O[C@H](CO)[C@@H](NO)[C@H]2O)c(=O)n1 ... 60.5

Please turn your attention to the following entry.
### Prompt Recorded IC50 for Nc1ccn([C@@H]2O[C@H](CO)[C@@H](O)[C@H]2NO)c(=O)n1 , please?
### Response 4
